Assay system UniProt Q15125; read-out recorded as pKi.
Sequence (Q15125 whole entry): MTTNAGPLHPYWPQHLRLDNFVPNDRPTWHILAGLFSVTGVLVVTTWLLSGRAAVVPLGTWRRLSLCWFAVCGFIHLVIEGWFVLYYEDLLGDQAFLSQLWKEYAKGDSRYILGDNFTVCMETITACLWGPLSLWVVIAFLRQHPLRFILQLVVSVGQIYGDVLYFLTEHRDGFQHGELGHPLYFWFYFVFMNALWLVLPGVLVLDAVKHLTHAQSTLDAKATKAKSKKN
pKi: −log10 of the molar value.

| Compound | pKi |
| --- | --- |
| CC(C)n1nc(-c2cccc(C(F)(F)F)n2)cc1[C@H]1[C@@H]2C[C@@H](N3CCOCC3)C[C@@H]21 | 7.00 |
| CC[C@@H]1CN([C@@H]2CC[C@H](c3nc(-c4cncc(F)c4)nn3C(C)C)C2)CCO1 | 5.62 |
| CC(C)n1nc(-c2cccc(OC(F)(F)F)c2)cc1[C@H]1[C@@H]2C[C@@H](N3CCCOCC3)C[C@@H]21 | 8.02 |
| CC(C)n1nc(-c2cc(C(F)(F)F)ccn2)nc1[C@@H]1CC[C@H](N2CCOCC2)C1 (single isomer, unassigned) | 7.52 |
| CC(C)n1nc(-c2ccnc(C(F)(F)F)n2)cc1[C@H]1[C@@H]2C[C@@H](N3CCOCC3)C[C@@H]21 | 7.93 |
| CC(C)n1nc(-c2cnc(C(F)(F)F)nc2)nc1[C@@H]1CC[C@@H](N2CCO[C@H](C)C2)C1 | 7.17 |
| CC(C)n1nc(-c2ccc(C(F)(F)F)c(F)c2)nc1[C@H]1CC[C@@H](N2CCO[C@H](CF)C2)C1 | 7.49 |
